All values here come from patent US20240067728A1.

# study.system: T1, PD-L1-His antigen (human, UniProt Q9NZQ7 19-238)
# T1 construct: Human PD-L1 ECD with C-terminal 8xHIS tag, expressed in HEK293F; also called hPDL1-His; human PD-L1-His
# T1 sequence (Q9NZQ7 other isoform, or with tags, fused parts or gaps limits assumed): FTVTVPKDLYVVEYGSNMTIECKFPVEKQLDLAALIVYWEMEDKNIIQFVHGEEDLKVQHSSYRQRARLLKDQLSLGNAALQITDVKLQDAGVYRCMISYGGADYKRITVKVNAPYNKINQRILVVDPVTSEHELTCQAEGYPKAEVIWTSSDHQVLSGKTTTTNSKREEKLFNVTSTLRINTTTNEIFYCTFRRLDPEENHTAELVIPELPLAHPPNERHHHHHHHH
# experimental.details: SPR (Biacore T200), PD-L1-His immobilised on chip, antibody as mobile phase, 1:1 Binding fit
pKd: −log10 of the molar value.

{"binder": "L1-R2-4-46 (antibody, human IgG1, kappa, V domains shown) VH: EVQLVESGGGLVQPGGSLRLSCAASGFTFSDSWIHWVRQAPGKGLEWVGWISPYGGSTYYADSLGDRFTISADTSKNTAYLQMNSLRAEDTAVYYCARRHWPGGFDYWGQGTLVTVSS VL: EIVLTQSPSSLSASVGDRVTITCLASQTIGTWLAWYQQKPGKSPQLLIYAASTLQSGVPSRFSGSGSGTDFTLTISSLQPEDVATYYCQQYYSTPRTFGQGTKVEIKR", "pKd": 9.55}
{"binder": "L1-R2-4-47 (antibody, human IgG1, kappa, V domains shown) VH: EVQLVESGGGLVQPGGSLRLSCAASGFTFSDSWIHWVRQAPGKGLEWVGWISPYGGSTYYADHLSQRFTISADTSKNTAYLQMNSLRAEDTAVYYCARRHWPGGFDYWGQGTLVTVSS VL: EIVLTQSPSSLSASVGDRVTITCLASQTIGTWLAWYQQKPGKSPQLLIYAASTLQSGVPSRFSGSGSGTDFTLTISSLQPEDVATYYCQQYYSTPRTFGQGTKVEIKR", "pKd": 9.54}
